Source listed as ChEMBL document CHEMBL1156080.

Molecular target: Transcription factor Jun (Gallus gallus)
Test: Inhibition of Jun-mediated oncogenic transformation in chicken embryo fibroblasts
Activity calls are given as the source filed them. The rule behind the calls is not given here.
parameter: inhibition

Observe how each entry below is paired with its result.
> print(dat)
                                   compound   parameter  test.value
1  CNC(=O)[C@@H]1CN(C(=O)CCC2CCN(C(=O)OC(C)(C)C)CC2)C[C@H]1C(=O)NC[C@H](NS(=O)(=O)CCc1cccc2ccccc12)C(=O)OC(C)(C)C  inhibition    inactive
2  CNC(=O)[C@@H]1CN(C(=O)CCCCCNC(=O)OC(C)(C)C)C[C@H]1C(=O)NC[C@H](NS(=O)(=O)CCc1cccc2ccccc12)C(=O)OC(C)(C)C  inhibition    inactive
3  CNC(=O)[C@@H]1CN(C(=O)CCCNC(=O)OC(C)(C)C)C[C@H]1C(=O)NC[C@H](NS(=O)(=O)c1cc(Cl)sc1Cl)C(=O)OC(C)(C)C  inhibition    inactive
4  CCCCS(=O)(=O)N[C@@H](CNC(=O)[C@@H]1CN(C(=O)CCCCCNC(=O)OC(C)(C)C)C[C@H]1C(=O)O)C(=O)OC(C)(C)C  inhibition    inactive
5  CNC(=O)[C@@H]1CN(C(=O)CCC2CCN(C(=O)OC(C)(C)C)CC2)C[C@H]1C(=O)NCCC(=O)OC(C)(C)C  inhibition    inactive

Input: # value lookup — system Transcription factor Jun (Gallus gallus), readout inhibition, item CNC(=O)[C@@H]1CN(C(=O)CCCCCNC(=O)OC(C)(C)C)C[C@H]1C(=O)NC[C@H](NS(=O)(=O)c1cc(Cl)sc1Cl)C(=O)OC(C)(C)C [MYCMYCIN 2]
Output: inactive

Input: Record lookup: for Transcription factor Jun (Gallus gallus), what inhibition belongs to CN(C)c1cccc2c(S(=O)(=O)N[C@@H](CNC(=O)[C@@H]3CN(C(=O)CCC4CCN(C(=O)OC(C)(C)C)CC4)C[C@H]3C(=O)O)C(=O)OC(C)(C)C)cccc12 ?
Output: inactive

* * *

Molecular target: Proto-oncogene tyrosine-protein kinase Src (Gallus gallus) (UniProt P00523)
Assay: Inhibition of Src-mediated oncogenic transformation in chicken embryo fibroblasts
Active and inactive are the calls of the source. No cut-off for these calls is given here.
parameter: inhibition

> print(dat)
                                 cpd.smiles  test.value
1  CNC(=O)[C@@H]1CN(C(=O)CCC2CCN(C(=O)OC(C)(C)C)CC2)C[C@H]1C(=O)NCCC(=O)OC(C)(C)C    inactive
2  CCCCS(=O)(=O)N[C@@H](CNC(=O)[C@@H]1CN(C(=O)CCCCCNC(=O)OC(C)(C)C)C[C@H]1C(=O)O)C(=O)OC(C)(C)C    inactive
3  CN(C)c1cccc2c(S(=O)(=O)N[C@@H](CNC(=O)[C@@H]3CN(C(=O)CCC4CCN(C(=O)OC(C)(C)C)CC4)C[C@H]3C(=O)O)C(=O)OC(C)(C)C)cccc12    inactive

* * *

Test: Inhibition of Myc/Max heterodimerization at 20 uM by FRET assay
parameter: inhibition (%)

P: CNC(=O)[C@@H]1CN(C(=O)CCCCCNC(=O)OC(C)(C)C)C[C@H]1C(=O)NC[C@H](NS(=O)(=O)c1cc(Cl)sc1Cl)C(=O)OC(C)(C)C [MYCMYCIN 2]
Q: Cc1cc(C)c(S(=O)(=O)N[C@@H](CNC(=O)[C@@H]2CN(C(=O)CC3CCN(C(=O)OC(C)(C)C)CC3)C[C@H]2C(=O)O)C(=O)OC(C)(C)C)c(C)c1 [MYCMYCIN 1]
Input: Record comparison, field inhibition: mark the lower of P and Q . Mark your selection by writing its label.
Output: P
(P: 18%, Q: 66%)

A: CN(C)c1cccc2c(S(=O)(=O)N[C@@H](CNC(=O)[C@@H]3CN(C(=O)CCC4CCN(C(=O)OC(C)(C)C)CC4)C[C@H]3C(=O)O)C(=O)OC(C)(C)C)cccc12
B: CNC(=O)[C@@H]1CN(C(=O)CCC2CCN(C(=O)OC(C)(C)C)CC2)C[C@H]1C(=O)NCCC(=O)OC(C)(C)C
Input: Just tell me: smaller inhibition value, A or B ? Kindly give the label for the entry you pick.
Output: B

P: CCCCS(=O)(=O)N[C@@H](CNC(=O)[C@@H]1CN(C(=O)CCCCCNC(=O)OC(C)(C)C)C[C@H]1C(=O)O)C(=O)OC(C)(C)C
Q: CNC(=O)[C@@H]1CN(C(=O)CCCNC(=O)OC(C)(C)C)C[C@H]1C(=O)NC[C@H](NS(=O)(=O)c1cc(Cl)sc1Cl)C(=O)OC(C)(C)C
Input: // compare measured inhibition between P and Q ; output the lower one I would appreciate it if you answered with the label of your choice.
Output: Q
(Q: 8%, P: 72%)

P: CNC(=O)[C@@H]1CN(C(=O)CCC2CCN(C(=O)OC(C)(C)C)CC2)C[C@H]1C(=O)NC[C@H](NS(=O)(=O)CCc1cccc2ccccc12)C(=O)OC(C)(C)C
Q: CNC(=O)[C@@H]1CN(C(=O)CCCCCNC(=O)OC(C)(C)C)C[C@H]1C(=O)NC[C@H](NS(=O)(=O)CCc1cccc2ccccc12)C(=O)OC(C)(C)C
Input: Name the one with the greater inhibition value, either P or Q as given. // return label of chosen record
Output: P
(P: 43%, Q: 24%)
